system-name: His-PKC-theta (Homo sapiens)
Construct: His; purchased Invitrogen
Sequence (Q04759 whole entry): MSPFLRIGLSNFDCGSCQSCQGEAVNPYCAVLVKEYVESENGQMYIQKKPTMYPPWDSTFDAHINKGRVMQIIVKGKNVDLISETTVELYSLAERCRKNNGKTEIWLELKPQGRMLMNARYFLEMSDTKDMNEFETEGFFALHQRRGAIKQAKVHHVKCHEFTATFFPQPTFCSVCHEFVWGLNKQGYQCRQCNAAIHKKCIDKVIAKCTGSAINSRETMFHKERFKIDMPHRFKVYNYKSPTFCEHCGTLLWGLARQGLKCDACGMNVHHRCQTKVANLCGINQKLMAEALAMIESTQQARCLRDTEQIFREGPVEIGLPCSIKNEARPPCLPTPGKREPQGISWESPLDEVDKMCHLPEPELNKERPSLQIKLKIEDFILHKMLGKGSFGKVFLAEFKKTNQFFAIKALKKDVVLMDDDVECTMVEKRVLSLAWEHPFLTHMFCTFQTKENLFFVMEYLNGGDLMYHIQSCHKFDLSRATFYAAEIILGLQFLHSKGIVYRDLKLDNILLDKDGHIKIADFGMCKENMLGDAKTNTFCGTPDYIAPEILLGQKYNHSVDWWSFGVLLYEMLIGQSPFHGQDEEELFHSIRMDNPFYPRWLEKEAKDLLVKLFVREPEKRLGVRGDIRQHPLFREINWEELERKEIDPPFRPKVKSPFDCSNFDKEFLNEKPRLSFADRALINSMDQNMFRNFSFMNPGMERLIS
procedure-details: PKC-theta Assay (384-well time resolved fluorescence, IMAP TR-FRET)
Type: biochemical
experimental-context: Table 2; read-out: Act. Level (IC50 in the PKC-theta Assay)
Each record here notes measured IC50.

Solved entries:
Recorded IC50 (compound CC1(C)C[C@H](Nc2nc(NCCc3ccccc3O)ncc2C#N)CC[C@@H]1O [Cmpd 67] ): 0.1 to 0.8 µM

Recorded IC50 (compound CC1(C)C[C@H](Nc2nc(NCCc3ccc(N4CCCCC4)cc3)ncc2C#N)CC[C@@H]1O [Cmpd 83] ): 0.1 to 0.8 µM

Recorded IC50 (compound CC1(C)C[C@H](Nc2nc(NCCc3ccc(F)cc3)ncc2C#N)CC[C@@H]1O [Cmpd 93] ): 0.1 to 0.8 µM

We now examine a further compound.
Recorded IC50 (compound CC1(C)[C@@H](O)C[C@H]1Nc1nc(NCCc2ccc(CN3CCCC3=O)cc2)ncc1C#N [Cmpd 123] ): 0.8 to 2 µM

----------
system-name: His-PKC-theta (Homo sapiens)
Construct: His; purchased Invitrogen
procedure-details: PKC-theta Assay (384-well time resolved fluorescence, IMAP TR-FRET)
Type: biochemical
experimental-context: Table 2; read-out: Act. Level (IC50 in the PKC-theta Assay)
Protocol: PKC-theta Assay. A 384-well time resolved fluorescence assay was used to monitor PKC-theta activity. The PKC-theta assay was run in the following assay buffer: 50 mM HEPES pH 7.6, 10 mM MgCl2, 1 mM DTT, 0.01% Triton X-100, 0.01% BSA and 0.1 mM EDTA. […] The assay plates were then incubated overnight at room temperature and read on a Perkin-Elmer Envision Reader.
value-type: IC50

Solved entries:
Recorded IC50 (compound COCCOc1ccc(CCNc2ncc(C#N)c(N[C@@H]3CC[C@H](O)C(C)(C)C3)n2)cc1 [Cmpd 62] ): 100 to 800 nM

Recorded IC50 (compound CC1(C)C[C@H](Nc2nc(NCCc3ccc(S(=O)(=O)N4CCC4)cc3)ncc2C#N)CC[C@@H]1O [Cmpd 176] ): 100 to 800 nM

Recorded IC50 (compound CC1(C)[C@@H](C(N)=O)C[C@H]1Nc1nc(NCCc2cccc(Cl)c2)ncc1C#N [Cmpd 165] ): < 100 nM

Recorded IC50 (compound CCOc1cccc(F)c1CNc1ncc(C#N)c(N[C@H]2CC[C@@H](O)CC2)n1 [Cmpd 23] ): 2000 to 10000 nM

Recorded IC50 (compound CC1(C)[C@@H](O)C[C@H]1Nc1nc(NCCc2cccc(Cl)c2)ncc1C#N [Cmpd 86] ): < 100 nM

Recorded IC50 (compound CC1(C)[C@H](N)C[C@H]1Nc1nc(NCCc2cccc(Cl)c2)ncc1C#N [Cmpd 158] ): 800 to 2000 nM

Recorded IC50 (compound C[C@H](CNc1ncc(C#N)c(N[C@@H]2C[C@H](O)C2(C)C)n1)c1ccccc1 [Cmpd 42] ): 100 to 800 nM

Recorded IC50 (compound CCc1ccc(CCNc2ncc(C#N)c(N[C@@H]3CC[C@H](O)C(C)(C)C3)n2)cc1 [Cmpd 34] ): 100 to 800 nM

More entries:
Recorded IC50 (compound CC1(C)C[C@H](Nc2nc(NCCc3ccc(Cl)cc3Cl)ncc2C#N)CC[C@@H]1O [Cmpd 100] ): 100 to 800 nM

Recorded IC50 (compound N#Cc1ccc(CCNc2ncc(C#N)c(N[C@H]3CC[C@@H](O)CC3)n2)cc1 [Cmpd 73] ): 800 to 2000 nM

Recorded IC50 (compound Cc1nnnn1-c1ccc(CCNc2ncc(C#N)c(N[C@@H]3CC[C@H](O)C(C)(C)C3)n2)cc1 [Cmpd 167] ): 100 to 800 nM

Recorded IC50 (compound CC(F)(F)COc1ccccc1CCNc1ncc(C#N)c(N[C@@H]2CC[C@H](O)C(C)(C)C2)n1 [Cmpd 152] ): 800 to 2000 nM

Recorded IC50 (compound CC1(C)[C@@H](Nc2nc(NCCc3cccc(Cl)c3)ncc2C#N)C[C@@H]1N [Cmpd 157] ): 100 to 800 nM

Recorded IC50 (compound CC1(C)C[C@H](Nc2nc(NCCc3cccc(S(C)(=O)=O)c3)ncc2C#N)CC[C@@H]1O [Cmpd 173] ): 100 to 800 nM

Recorded IC50 (compound COc1cc(CCNc2ncc(C#N)c(N[C@@H]3CC[C@H](O)C(C)(C)C3)n2)ccc1C#N [Cmpd 137] ): 100 to 800 nM

All figures here come from patent US9783505B2.
